Assay: NOD1 signaling inhibitors, primary screen, cell-based, luminescence, uHTS (AID 1578);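 note: HEK-293T reporter cells stimulated with the NOD1 agonist gamma-tri-DAP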
Conditions: NOD1-driven NF-kB luciferase reporter cells, at 4 µM
Out of some 290,000 compounds screened, about 3,000 (1%) were called active. Cut-off read from the data, not from the text of the source: active = inhibition mostly above about 36% (no sharp cut-off); inactive = mostly below about 34%. Shown is part of a subset that was picked to be rich in actives.
Form entry, call: pick from class 1 = active, class 0 = inactive

Write down the call the test reported for this compound. Item: O=C(NCc1ccccc1)C1CCC(CNS(=O)(=O)c2cccs2)CC1 (stereo not given)
class 0

Record lookup: outcome of this test for Cn1c(N)c(C(=O)Nc2c(Cl)cccc2Cl)sc1=S ?
class 0

Assay result, entry COC(=O)c1cccc(NC(=O)NC(=O)c2ccccc2Cl)c1 — outcome?
class 1

Assay outcome for N#C/C(=C\c1ccc([N+](=O)[O-])o1)c1nc2ccccc2[nH]1 : what was it?
class 1

Look up the recorded call for c1ccc(Nc2ccnc(Nc3ccccc3)n2)cc1 in this test.
class 0

Hey, what did the test say about CCn1c(C)c(C(C)=O)cc(C#N)c1=O ?
class 0

Entry CN(C)c1ccc(/C=C/c2cccc[n+]2[O-])cc1 : call = ?
class 0

Which result was noted for this compound in the test: Nc1nc(=S)[nH]c2c1C1(CCCC1)Cc1ccccc1-2
class 0

Please let me know the test result on file for N#C/C(=C(/O)c1ccc([N+](=O)[O-])o1)c1nc2ccccc2[nH]1 .
class 0

Short answer needed: outcome of this test for O=c1cc(NS(=O)(=O)c2ccccc2)nc(SCc2ccc(Cl)cc2)[nH]1 ?
class 0

# credit: PubChem BioAssay AID1578
